remaining proliferation (% of control), lower = more inhibition values by entry
experiment: qHTS profiling for inhibitors of Plasmodium falciparum (HB3) proliferation (AID 743324);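 also: 100% = DMSO vehicle wells and 0% = artemisinin-treated control wells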
conditionDescription: Plasmodium falciparum HB3 blood-stage proliferation; at 28.7 µM (top of the series)
Excerpt: Plasmodium falciparum is a virulent malarial parasite that kills 1-2 million people worldwide each year. Transmitted by mosquitoes, the sporozoite form of the parasite enters the blood stream to infect hepatocytes, where they become merozoites that infect red blood cells (erythrocytes). […] Because mature erythrocytes lack DNA, only Plasmodium-derived DNA is detected. […]
measurementLabel: remaining proliferation (% of control), lower = more inhibition (%)

INSERT INTO measurements (compoundsmiles, quantitativeresult) VALUES
  ('COc1cc2c(Oc3ccc(NC(=O)C4(C(=O)Nc5ccc(F)cc5)CC4)cc3F)ccnc2cc1OCCCN1CCOCC1', -0.88),
  ('COc1ccc(C=Cc2cc(OC)c(OC)c(OC)c2)cc1O', 84.7),
  ('CCC(=C(c1ccccc1)c1ccc(OCCN(C)C)cc1)c1ccccc1', 8.11),
  ('COc1cc2ncnc(Nc3ccc(F)c(Cl)c3)c2cc1NC(=O)C=CCN1CCCCC1', 0.28),
  ('Cc1cn(-c2cc(NC(=O)c3ccc(C)c(Nc4nccc(-c5cccnc5)n4)c3)cc(C(F)(F)F)c2)cn1', 2.94),
  ('CC(=O)OCCN1C(=O)c2c(C)nc3ccc(S(=O)(=O)N4CCOCC4)cc3c2C1=O', 103),
  ('O=C(O)[C@H](Cc1c[nH]c2ccccc12)N1C(=O)c2ccccc2C1=O', 85.6),
  ('CC(C)=CCCC(C)=CCCC(C)=CCSc1ccccc1C(=O)O', 92),
  ('COc1cc2c(Oc3ccc4[nH]c(C)cc4c3F)ncnc2cc1OCCCN1CCCC1', 0.351),
  ('NC(=O)c1c(OCc2c(F)cc(Br)cc2F)nsc1NC(=O)NCCCCN1CCCC1', 2.02);
